- targetSystem: S. pyogenes SKKanGAS, kanamycin survival, BacTiterGlo, 6 h
- methodDescription: S. pyogenes SKKanGAS kanamycin growth inhibitors – SKKanGAS strain, luminescence, dose confirmation, streptokinase promoter inhibitor project, dose response (AID 1902);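 also: lower survival reflects blocked streptokinase promoter driving kanamycin resistance gene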
Activity calls are given as the source filed them.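 The calls were made as follows: active = EC50 no more than a set limit of log units above the highest dose; inactive = the rest.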
We begin with a simple list: items and their reported EC50.

Known EC50 results, listed for orientation:
COc1ccc(Nc2nc(NN)nc(Nc3ccc(OC)cc3)n2)cc1: 6.02 µM
C=CCn1c(O)c(C(CC)=Nc2ccc(N(CC)CC)cc2)c(=O)[nH]c1=O: 1.66 µM
Cc1cc(Oc2cnn(C(C)(C)C)c(=O)c2Cl)cc(C(C)C)c1: 4.37 µM

Consider the record given below.
API: value(readout=EC50, system=S. pyogenes SKKanGAS, kanamycin survival, BacTiterGlo, 6 h) for record N#C/C(=N\Nc1ccc(S(=O)(=O)N2CCOCC2)cc1)C(N)=S
> 15 µM (inactive)

* * *

- targetSystem: S. pyogenes SKKanGAS, kanamycin survival, BacTiterGlo, 6 h
- methodDescription: S. pyogenes SKKanGAS kanamycin growth inhibitors – SKKanGAS strain, luminescence, dose confirmation, streptokinase promoter inhibitor project, dose response (AID 1902)
We begin with a simple list: items and their reported EC50.

Known EC50 results, listed for orientation:
Cc1ccc(Cl)cc1NC1=C/C(=N\S(=O)(=O)c2cccs2)c2ccccc2C1=O: 0.908 µM
CC12CC3(C)CC(C)(C1)CC(C(=O)NC1=NCCS1)(C2)C3: 0.992 µM

API: value(readout=EC50, system=S. pyogenes SKKanGAS, kanamycin survival, BacTiterGlo, 6 h) for record O=C(N/N=C/c1ccc([N+](=O)[O-])o1)c1ccc(NS(=O)(=O)c2cccs2)cc1
3.55 µM

API: value(readout=EC50, system=S. pyogenes SKKanGAS, kanamycin survival, BacTiterGlo, 6 h) for record c1ccc(-c2nnc(-c3c[nH]c4ccccc34)nc2-c2ccccc2)cc1
7.17 µM

API: value(readout=EC50, system=S. pyogenes SKKanGAS, kanamycin survival, BacTiterGlo, 6 h) for record Cc1ccc2ccc(C(Nc3cccc(C(F)(F)F)c3)c3cccnc3)c(O)c2n1 (configuration not stated)
1.12 µM

API: value(readout=EC50, system=S. pyogenes SKKanGAS, kanamycin survival, BacTiterGlo, 6 h) for record Cc1[nH]c2ccccc2c1C(c1ccccn1)c1c(C)[nH]c2ccccc12
8.63 µM

API: value(readout=EC50, system=S. pyogenes SKKanGAS, kanamycin survival, BacTiterGlo, 6 h) for record CCOC(=O)C1=C(N)c2ccccc2CC1C1CCCC1 (configuration not stated)
3.26 µM

API: value(readout=EC50, system=S. pyogenes SKKanGAS, kanamycin survival, BacTiterGlo, 6 h) for record Cc1cccc2sc(NNC(=O)c3cc(=O)c4ccccc4o3)nc12
0.42 µM

API: value(readout=EC50, system=S. pyogenes SKKanGAS, kanamycin survival, BacTiterGlo, 6 h) for record CCCc1cc2c(-c3ccccc3)cc(=O)oc2cc1OCc1ccc(C(=O)O)o1
8.9 µM

API: value(readout=EC50, system=S. pyogenes SKKanGAS, kanamycin survival, BacTiterGlo, 6 h) for record CCCCCCCCCCOC(=O)Cn1c(COc2cccc(C)c2)[n+](C)c2ccccc21
2.83 µM

* * *

We begin with a simple list: items and their reported EC50.
- targetSystem: S. pyogenes SKKanGAS, kanamycin survival, BacTiterGlo, 6 h
- methodDescription: S. pyogenes SKKanGAS kanamycin growth inhibitors – SKKanGAS strain, luminescence, dose confirmation, streptokinase promoter inhibitor project, dose response (AID 1902)

Known EC50 results, listed for orientation:
C/C(=N\NC(=O)c1ccccc1N)c1ccc(NC(=O)Cc2ccccc2)cc1: 4.95 µM
O=C(Cc1ccccc1)Nn1c(O)c(/C=C2\C=Nc3ccccc32)sc1=S: 14.6 µM

Consider the record given below.
Quick one: EC50 for O=C(CN1c2ccccc2Sc2ccccc21)NNC(=S)Nc1ccc(Cl)cc1 ?
2.67 µM

* * *

- targetSystem: S. pyogenes SKKanGAS, kanamycin survival, BacTiterGlo, 6 h
- methodDescription: S. pyogenes SKKanGAS kanamycin growth inhibitors – SKKanGAS strain, luminescence, dose confirmation, streptokinase promoter inhibitor project, dose response (AID 1902)
The source made the active and inactive calls.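 How the source made its calls: active means EC50 no more than a set limit of log units above the highest dose; inactive means the rest.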
Log the outcome using a class from 1 = active, -1 = inactive

Illustrative cases are given below, each with its answer.
CC(C)C[C@H](NC(=O)c1[nH]cnc1C(=O)Nc1ccccc1)C(=O)OC(C)(C)C: 1
Cc1ccc2ccc(C(Nc3ccccn3)c3ccccc3)c(O)c2n1 (stereo not drawn): 1
CC1CC(=O)c2c(cc3c(-c4c(O)cc(O)c5c(O)c6c(cc45)OC(C)CC6=O)c(O)cc(O)c3c2O)O1 (stereo not drawn): 1
FC(F)(F)c1cccc(Nc2nc(N3CCCC3)nc(N3CCCC3)n2)c1: 1
O=C(OCc1ccc(COC(=O)c2ccc(O)cc2)cc1)c1ccc(O)cc1: 1
CC(C)Sc1cc(N2CCCC2)nc(-c2ccc(F)cc2)n1: 1
O=S(=O)(NCc1nnc2c(C(F)(F)F)cc(Cl)cn12)c1ccccc1: -1

# input for lookup
Dear colleague, could you share the recorded outcome for Cc1cc(NC(=O)c2cnccn2)no1 when you have a moment?
-1

* * *

- targetSystem: S. pyogenes SKKanGAS, kanamycin survival, BacTiterGlo, 6 h
- methodDescription: S. pyogenes SKKanGAS kanamycin growth inhibitors – SKKanGAS strain, luminescence, dose confirmation, streptokinase promoter inhibitor project, dose response (AID 1902);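 also: lower survival reflects blocked streptokinase promoter driving kanamycin resistance gene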
We begin with a simple list: items and their reported EC50.

Known EC50 results, listed for orientation:
CCn1c(C)nc2cc(C(=O)NNC(=S)NC(=O)c3ccc(OC)cc3)ccc21: 5.87 µM
O=C(O)c1ccc(S(=O)(=O)/N=C2\C=C(Nc3ccccc3F)C(=O)c3ccccc32)cc1: 3.1 µM
C[C@H]1[C@H](C)CC[C@]2(C(=O)O)CC[C@]3(C)C(=CC[C@@H]4[C@@]5(C)C[C@@H](O)[C@H](O)C(C)(C)[C@@H]5CC[C@]43C)[C@H]12: 2.81 µM

Quick one: EC50 for COc1cccc(COC(=O)c2sc3nc4n(c(=O)c3c2C)CCC4)c1OC ?
4.76 µM

* * *

- targetSystem: S. pyogenes SKKanGAS, kanamycin survival, BacTiterGlo, 6 h
- methodDescription: S. pyogenes SKKanGAS kanamycin growth inhibitors – SKKanGAS strain, luminescence, dose confirmation, streptokinase promoter inhibitor project, dose response (AID 1902);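 also: lower survival reflects blocked streptokinase promoter driving kanamycin resistance gene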
We begin with a simple list: items and their reported pEC50.
The quantity pEC50 is defined as the negative base-10 logarithm of the molar concentration.

Quick one: pEC50 for Cc1cccc(C)c1OC1(c2ccccc2)OC(=O)c2ccccc21 (stereo not given) ?
5.55

Quick one: pEC50 for CC[n+]1c(/C=C/N(C)c2ccccc2)n(-c2ccccc2)c2ccc(-c3nc4ccccc4s3)cc21 ?
5.44

* * *

- targetSystem: S. pyogenes SKKanGAS, kanamycin survival, BacTiterGlo, 6 h
- methodDescription: S. pyogenes SKKanGAS kanamycin growth inhibitors – SKKanGAS strain, luminescence, dose confirmation, streptokinase promoter inhibitor project, dose response (AID 1902);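 also: lower survival reflects blocked streptokinase promoter driving kanamycin resistance gene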
Calls of active or inactive are those of the source.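 Rule for the calls: active = EC50 no more than a set limit of log units above the highest dose; inactive = the rest.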
Log the outcome using a class from active, inactive

Dear colleague, could you share the recorded outcome for CCn1cnc2c1c(=O)n(CC(=O)Nc1cc(C)on1)c(=O)n2Cc1ccccc1 when you have a moment?
inactive

Dear colleague, could you share the recorded outcome for Cc1cc(/C=N/n2cnnc2)c(C)n1-c1ccc(OCc2ccc(Cl)cc2)cc1 when you have a moment?
active

Dear colleague, could you share the recorded outcome for Cc1cc(N2C(=O)C(O)=C(C(=O)c3cc4ccccc4o3)C2c2cccc(Cl)c2)no1 (configuration not stated) when you have a moment?
active

Dear colleague, could you share the recorded outcome for CC(=O)c1ccc(NC(=S)Nc2ccc(Br)c(Cl)c2)cc1 when you have a moment?
active

Dear colleague, could you share the recorded outcome for O=c1c2c(nc3c(-c4ccc(Cl)cc4)c[nH]n13)CCCC2 when you have a moment?
active

Dear colleague, could you share the recorded outcome for Nc1nonc1-n1nnc(C(=O)N/N=C/c2cc(Br)ccc2O)c1CNc1ccccc1 when you have a moment?
active

Dear colleague, could you share the recorded outcome for Cc1ccc(O)c(C(=O)CC(=O)c2ccc(C(C)(C)C)cc2)c1 when you have a moment?
active

Dear colleague, could you share the recorded outcome for O=c1c2c(nc(NCCO)n1CC1CCCCC1)-c1ccccc1CC21CCCC1 when you have a moment?
active

Dear colleague, could you share the recorded outcome for C=CCSc1nc2ccccc2c(=O)n1Cc1ccccc1 when you have a moment?
active

Dear colleague, could you share the recorded outcome for O=C(CSc1ccccn1)Nc1nonc1[N+](=O)[O-] when you have a moment?
active

Dear colleague, could you share the recorded outcome for Cc1cccc(/C=C2\Sc3ccc(C(=O)N4CCC(C)CC4)cc3N(C)C2=O)c1 when you have a moment?
active

Dear colleague, could you share the recorded outcome for CCOC(=O)c1c(NS(=O)(=O)c2ccc(Br)cc2)sc2c1CCC2 when you have a moment?
active
